Molecular target: Sigma non-opioid intracellular receptor 1 (Cavia porcellus) (UniProt Q60492)
Sequence (Q60492 whole entry, looked up): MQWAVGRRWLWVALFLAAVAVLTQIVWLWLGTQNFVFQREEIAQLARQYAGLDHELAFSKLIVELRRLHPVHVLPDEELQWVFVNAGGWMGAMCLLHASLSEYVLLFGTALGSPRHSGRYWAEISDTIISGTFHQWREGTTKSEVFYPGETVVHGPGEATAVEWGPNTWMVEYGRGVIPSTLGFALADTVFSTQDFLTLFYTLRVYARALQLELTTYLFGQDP
Test: Inhibitory activity against opioid receptor sigma 1 in guinea pig cerebral cortex using [3H](+)-pentazocine as radio ligand at pH 7.5 for 150 min at 22 degree C
pIC50: −log10 of the molar value.
Lab note: anything with pIC50 at or over 8 counts as MET; the rest go in NOT MET.

INSERT INTO measurements (smiles, classassignment) VALUES
  ('CN(CCCCc1ccccc1)CCn1c(O)c2n(c1=O)Cc1ccccc1C2', 'MET'),
  ('CN(CCCCCc1ccccc1)CCn1c(O)c2n(c1=O)Cc1ccccc1C2', 'MET'),
  ('O=c1n(CCN2CCN(CCO)CC2)c(O)c2n1Cc1ccccc1C2', 'NOT MET'),
  ('O=c1n(CCCN2CCN(Cc3ccccc3)CC2)c(O)c2n1Cc1ccccc1C2', 'NOT MET');
